target: Protein kinase C beta type (Homo sapiens); test: Inhibitory concentration against recombinant human Protein kinase C beta 1 isozyme
Sequence (P05771 whole entry): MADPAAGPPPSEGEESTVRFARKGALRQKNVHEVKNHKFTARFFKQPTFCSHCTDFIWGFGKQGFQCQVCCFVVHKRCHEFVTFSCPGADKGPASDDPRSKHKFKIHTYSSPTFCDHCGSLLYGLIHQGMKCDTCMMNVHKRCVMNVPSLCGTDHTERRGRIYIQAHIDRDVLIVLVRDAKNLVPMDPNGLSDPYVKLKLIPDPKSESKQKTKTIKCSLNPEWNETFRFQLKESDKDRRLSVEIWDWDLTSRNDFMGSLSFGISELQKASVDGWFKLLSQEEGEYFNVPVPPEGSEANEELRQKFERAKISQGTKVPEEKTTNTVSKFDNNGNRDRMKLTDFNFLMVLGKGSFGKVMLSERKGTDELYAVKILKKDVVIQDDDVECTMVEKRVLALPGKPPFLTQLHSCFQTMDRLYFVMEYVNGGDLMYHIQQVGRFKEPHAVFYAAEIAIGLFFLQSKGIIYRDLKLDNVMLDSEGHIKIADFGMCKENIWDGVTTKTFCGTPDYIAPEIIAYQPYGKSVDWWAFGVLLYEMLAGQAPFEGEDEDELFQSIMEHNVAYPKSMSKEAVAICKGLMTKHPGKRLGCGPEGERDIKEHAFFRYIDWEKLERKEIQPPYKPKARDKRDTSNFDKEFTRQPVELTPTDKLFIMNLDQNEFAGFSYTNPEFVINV
recorded endpoint: pIC50
Quick note: pIC50 values are minus log10 of concentrations in mol/L.

Task: Form field: reported pIC50 of CC1(C)C2CCC1(C)[C@@H](OC(=O)c1cc(O)c(C(=O)c3c(O)cccc3C(=O)O)c(O)c1)[C@@H]2NC(=O)c1ccc(O)cc1 (some centres undefined)
Result: 6.51

Task: # query: pIC50 of entry O=C(N[C@@H]1CS(=O)(=O)CCC[C@H]1OC(=O)c1cc(O)c(C(=O)c2c(O)cccc2C(=O)O)c(O)c1)c1ccc(O)cc1
Result: 5.28

Task: What does the record list as pIC50 for COC(=O)N1C[C@@H](NC(=O)c2ccc(O)cc2)[C@H](OC(=O)c2cc(O)c(C(=O)c3c(O)cccc3C(=O)O)c(O)c2)C1 ?
Result: 6.09

Task: # get_value(readout='pIC50', item= O=C(N[C@@H]1C2CCC(C2)[C@H]1OC(=O)c1cc(O)c(C(=O)c2c(O)cccc2C(=O)O)c(O)c1)c1ccc(O)cc1 (some centres undefined) )
Result: 7.30
